assay: Blood brain barrier permeation; type: in vivo, ICR mice; conditions: male, ICR, mouse, plasma, po, 10 mg/kg, oral once 10 mg/kg, 4 hrs, read-out: Concentration in the plasma
Attribute measured: concentration at 4 h
Please report the result as a number followed by the unit.

Enquiry: Identify measured concentration at 4 h corresponding to Nc1nccc(-c2nc(-c3ccncc3)ccc2O)n1
Return: 2.6 ng/mL

Enquiry: Identify measured concentration at 4 h corresponding to Nc1nccc(-c2ccc(O)c(-c3ccnc(N)n3)n2)n1
Return: 86.5 ng/mL

Enquiry: Identify measured concentration at 4 h corresponding to Cc1cc(-c2nc(-c3ccnc(N)c3F)ccc2O)nc(N)n1
Return: 52.1 ng/mL

###

biological target: CDK1/cyclinB (Homo sapiens, UniProt P06493); assay: Inhibition of CDK enzyme activity (ADP-Glo kinase assay); details: 10 uM ATP, histone H1 substrate
Sequence (P06493 whole entry): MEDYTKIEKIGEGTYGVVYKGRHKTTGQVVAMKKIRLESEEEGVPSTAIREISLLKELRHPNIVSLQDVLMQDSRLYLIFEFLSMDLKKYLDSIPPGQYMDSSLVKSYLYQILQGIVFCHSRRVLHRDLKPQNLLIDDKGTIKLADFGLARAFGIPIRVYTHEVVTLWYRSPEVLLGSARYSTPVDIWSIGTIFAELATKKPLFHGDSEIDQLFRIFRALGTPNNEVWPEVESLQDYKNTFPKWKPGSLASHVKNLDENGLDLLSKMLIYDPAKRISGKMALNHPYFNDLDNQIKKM
Sequence (P14635 whole entry partner): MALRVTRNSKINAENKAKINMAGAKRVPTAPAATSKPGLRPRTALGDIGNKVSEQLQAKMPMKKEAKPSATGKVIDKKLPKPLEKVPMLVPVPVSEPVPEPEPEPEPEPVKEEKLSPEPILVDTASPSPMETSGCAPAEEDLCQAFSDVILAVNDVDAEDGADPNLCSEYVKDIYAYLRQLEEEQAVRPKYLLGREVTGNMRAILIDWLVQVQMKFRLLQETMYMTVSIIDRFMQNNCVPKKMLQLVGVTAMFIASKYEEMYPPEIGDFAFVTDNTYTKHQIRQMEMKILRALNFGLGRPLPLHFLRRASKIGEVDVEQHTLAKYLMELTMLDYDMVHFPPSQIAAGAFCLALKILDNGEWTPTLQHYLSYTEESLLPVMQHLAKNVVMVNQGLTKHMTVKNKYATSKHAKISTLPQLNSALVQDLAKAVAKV
pIC50: −log10 of the molar value.
Returns Yes if the recorded pIC50 is greater than or equal to 9, and No otherwise.

Enquiry: I'd appreciate it if you could say whether CC(C)c1cc(-c2nc(-c3ccnc(N)c3F)ccc2O)nc(N)n1 has pIC50 at least equal to 9.
Return: No

Enquiry: I'd appreciate it if you could say whether Nc1cc(-c2ccc(O)c(-c3ccnc(N)n3)n2)ccn1 has pIC50 at least equal to 9.
Return: No

Enquiry: I'd appreciate it if you could say whether Nc1nc(-c2nc(-c3ccnc(N)c3F)ccc2O)cc(C2CCNCC2)n1 has pIC50 at least equal to 9.
Return: No

Enquiry: I'd appreciate it if you could say whether Cc1cc(-c2nc(-c3ccnc(N)c3F)ccc2O)nc(N)n1 [Example 71] has pIC50 at least equal to 9.
Return: Yes

###

Task for the reader: assign each of the following compounds its reported concentration at 1 h.
experiment: Blood brain barrier permeation; assay type: in vivo, ICR mice; conditions: male, ICR, mouse, brain, po, 30 mg/kg, oral once 30 mg/kg, 1 hr, read-out: Concentration in the brain
Write the number in ng/g without appending the unit.

Enquiry: Identify measured concentration at 1 h corresponding to Nc1cc(-c2ccc(O)c(-c3ccnc(N)n3)n2)ccn1
Return: 129

Enquiry: Identify measured concentration at 1 h corresponding to Nc1nccc(-c2ccc(O)c(-c3ccnc(N)n3)n2)n1
Return: 768

Enquiry: Identify measured concentration at 1 h corresponding to Nc1nccc(-c2nc(-c3ccnc(N)c3F)ccc2O)n1
Return: 144

###

tested on: T98G; assay: Inhibition of cancer cell proliferation (MTT); format: cell-based, human; conditions: Homo sapiens, T98G, 72 h
Task for the reader: assign each of the following compounds its reported GI50.
Write the number in nM without appending the unit.

Enquiry: Identify measured GI50 corresponding to CNc1nc(-c2nc(-c3ccnc(N)c3F)ccc2O)cc(C2CCN(C)CC2)n1
Return: 110

Enquiry: Identify measured GI50 corresponding to CC(C)N1CCCC(c2cc(-c3nc(-c4ccnc(N)c4F)ccc3O)nc(N)n2)C1 (stereo not shown)
Return: 110

Enquiry: Identify measured GI50 corresponding to Nc1nccc(-c2nc(-c3ccc(O)c(F)c3F)ccc2O)n1
Return: 4310

Enquiry: Identify measured GI50 corresponding to Cc1nc(N)nc(-c2nc(-c3ccnc(N)c3F)ccc2O)c1C
Return: 260

Enquiry: Identify measured GI50 corresponding to Cc1cc(-c2nc(-c3ccnc(N)c3F)ccc2O)nc(N)n1
Return: 60

Enquiry: Identify measured GI50 corresponding to CCCN1CCC(c2cc(-c3nc(-c4ccnc(N)c4F)ccc3O)nc(N)n2)CC1
Return: 20

Enquiry: Identify measured GI50 corresponding to CN1CCCC(c2cc(-c3nc(-c4ccnc(N)c4F)ccc3O)nc(N)n2)C1 (stereo not shown)
Return: 20

###

tested on: T98G; test: Inhibition of cancer cell proliferation (MTT); assay type: cell-based, human; conditions: Homo sapiens, T98G, 72 h
Task for the reader: assign each of the following molecules its reported GI50.
Write the number in nM without appending the unit.

Enquiry: Param request: GI50 | system T98G | item CCCc1c(-c2nc(-c3ccnc(N)c3F)ccc2O)nc(N)nc1C1CCN(C(C)C)CC1
Return: 130

Enquiry: Param request: GI50 | system T98G | item CC(C)c1cnc(N)nc1-c1nc(-c2ccnc(N)c2F)ccc1O
Return: 40

Enquiry: Param request: GI50 | system T98G | item CC(C)N1CCC(c2cc(-c3nc(-c4ccnc(N)c4F)ccc3O)nc(N)n2)CC1
Return: 30

Enquiry: Param request: GI50 | system T98G | item CCN1CCC(c2cc(-c3nc(-c4ccnc(N)c4F)ccc3O)nc(N)n2)CC1
Return: 210

Enquiry: Param request: GI50 | system T98G | item Nc1nc(-c2nc(-c3ccnc(N)c3F)ccc2O)cc(N2CCOCC2)n1
Return: 10

Enquiry: Param request: GI50 | system T98G | item CCc1c(-c2nc(-c3ccnc(N)c3F)ccc2O)nc(N)nc1C1CCN(C(C)C)CC1
Return: 50

Enquiry: Param request: GI50 | system T98G | item Nc1nc(-c2nc(-c3ccnc(N)c3F)ccc2O)cc(C2CCOCC2)n1
Return: 110

Enquiry: Param request: GI50 | system T98G | item Nc1nccc(-c2nc(-c3ccc(O)c(F)c3)ccc2O)n1
Return: 2610

Enquiry: Param request: GI50 | system T98G | item Nc1nc(-c2nc(-c3ccnc(N)c3F)ccc2O)cc(C2CCNCC2)n1
Return: 260

###

assay: Blood brain barrier permeation; format: in vivo, ICR mice; details: male, ICR, mouse, plasma, po, 10 mg/kg, oral once 10 mg/kg, 1 hr, read-out: Concentration in the plasma
Task for the reader: assign each of the following compounds its reported concentration at 1 h.
Write the number in ng/mL without appending the unit.

Enquiry: Identify measured concentration at 1 h corresponding to Cc1cc(-c2nc(-c3ccnc(N)c3F)ccc2O)nc(N)n1
Return: 1380

Enquiry: Identify measured concentration at 1 h corresponding to Nc1nccc(-c2nc(-c3ccnc(N)c3F)ccc2O)n1
Return: 24.9

Enquiry: Identify measured concentration at 1 h corresponding to Nc1nccc(-c2ccc(O)c(-c3ccnc(N)n3)n2)n1
Return: 283

Enquiry: Identify measured concentration at 1 h corresponding to Nc1nccc(-c2nc(-c3ccncc3)ccc2O)n1
Return: 17.3

###

target: CDK6/cyclinD3 (Homo sapiens); assay: Inhibition of CDK enzyme activity (ADP-Glo kinase assay); conditions: 10 uM ATP, histone H1 substrate; read-out: IC50 CDK6/cyclinD
Sequence (Q00534 whole entry): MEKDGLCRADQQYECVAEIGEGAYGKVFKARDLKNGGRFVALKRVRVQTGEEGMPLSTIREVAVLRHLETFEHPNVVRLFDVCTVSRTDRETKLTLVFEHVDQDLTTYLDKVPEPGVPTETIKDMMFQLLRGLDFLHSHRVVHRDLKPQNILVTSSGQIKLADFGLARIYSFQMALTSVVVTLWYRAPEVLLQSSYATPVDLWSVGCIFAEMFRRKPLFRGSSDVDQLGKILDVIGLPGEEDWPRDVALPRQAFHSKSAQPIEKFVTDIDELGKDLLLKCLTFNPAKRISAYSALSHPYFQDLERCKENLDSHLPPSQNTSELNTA
Sequence (P30281 whole entry partner): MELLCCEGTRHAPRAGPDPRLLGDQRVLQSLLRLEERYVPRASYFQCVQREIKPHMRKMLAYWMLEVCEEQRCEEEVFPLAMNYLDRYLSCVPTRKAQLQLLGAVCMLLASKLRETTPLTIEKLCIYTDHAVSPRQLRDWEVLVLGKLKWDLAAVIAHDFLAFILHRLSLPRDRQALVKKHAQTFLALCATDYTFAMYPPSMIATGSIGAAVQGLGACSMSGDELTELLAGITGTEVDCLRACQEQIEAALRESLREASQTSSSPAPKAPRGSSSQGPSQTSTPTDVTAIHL
Task for the reader: assign each of the following compounds its reported pIC50.
Remember, pIC50 is on a log scale: it is -log10 of the molar concentration.

Enquiry: Identify measured pIC50 corresponding to Nc1nc(-c2nc(-c3ccnc(N)c3F)ccc2O)cc(N2CCOCC2)n1
Return: 7.45

Enquiry: Identify measured pIC50 corresponding to Cc1cc(-c2nc(-c3ccnc(N)c3F)ccc2O)nc(N)n1 [Example 71]
Return: 7.53

Enquiry: Identify measured pIC50 corresponding to Nc1nccc(-c2nc(-c3ccnc(N)c3F)ccc2O)n1
Return: 7.33

Enquiry: Identify measured pIC50 corresponding to CC(C)c1cnc(N)nc1-c1nc(-c2ccnc(N)c2F)ccc1O
Return: 7.27

Enquiry: Identify measured pIC50 corresponding to Nc1nc(-c2nc(-c3ccnc(N)c3F)ccc2O)cc(C2CCNCC2)n1
Return: 6.62

Enquiry: Identify measured pIC50 corresponding to CN(C)c1cc(-c2nc(-c3ccnc(N)c3F)ccc2O)nc(N)n1
Return: 7.22

Enquiry: Identify measured pIC50 corresponding to Nc1nccc(-c2nc(-c3ccncc3)ccc2O)n1
Return: 7.29

Enquiry: Identify measured pIC50 corresponding to Nc1nccc(-c2nc(-c3ccnc(N)c3O)ccc2O)n1
Return: 7.13

Enquiry: Identify measured pIC50 corresponding to CN1CCN(c2cc(-c3nc(-c4ccnc(N)c4F)ccc3O)nc(N)n2)CC1
Return: 7.06

Enquiry: Identify measured pIC50 corresponding to Cc1cc(-c2nc(-c3ccnc(N)c3F)ccc2O)nc(N)n1 [Example 24]
Return: 7.47

Enquiry: Identify measured pIC50 corresponding to CN1CCC(c2cc(-c3nc(-c4ccnc(N)c4F)ccc3O)nc(N)n2)CC1
Return: 6.75

Enquiry: Identify measured pIC50 corresponding to Nc1nccc(-c2nc(-c3ccc(O)c(F)c3)ccc2O)n1
Return: 6.89

Enquiry: Identify measured pIC50 corresponding to Nc1nccc(-c2nc(-c3ccc(O)cc3F)ccc2O)n1
Return: 7.19

Enquiry: Identify measured pIC50 corresponding to Nc1nccc(-c2nc(-c3cccc(N)c3F)ccc2O)n1
Return: 6.74

Enquiry: Identify measured pIC50 corresponding to CC(C)c1cc(-c2nc(-c3ccnc(N)c3F)ccc2O)nc(N)n1
Return: 7.21

Enquiry: Identify measured pIC50 corresponding to Nc1nccc(-c2nc(-c3ccc(O)cc3)ccc2O)n1
Return: 7.35
